target: Tumour suppressor protein p53/Mdm4 (Homo sapiens, UniProt O15151); test: Inhibition of MDM4/p53 (unknown origin) interaction by fluorescence polarization assay
Sequence (P04637 whole entry): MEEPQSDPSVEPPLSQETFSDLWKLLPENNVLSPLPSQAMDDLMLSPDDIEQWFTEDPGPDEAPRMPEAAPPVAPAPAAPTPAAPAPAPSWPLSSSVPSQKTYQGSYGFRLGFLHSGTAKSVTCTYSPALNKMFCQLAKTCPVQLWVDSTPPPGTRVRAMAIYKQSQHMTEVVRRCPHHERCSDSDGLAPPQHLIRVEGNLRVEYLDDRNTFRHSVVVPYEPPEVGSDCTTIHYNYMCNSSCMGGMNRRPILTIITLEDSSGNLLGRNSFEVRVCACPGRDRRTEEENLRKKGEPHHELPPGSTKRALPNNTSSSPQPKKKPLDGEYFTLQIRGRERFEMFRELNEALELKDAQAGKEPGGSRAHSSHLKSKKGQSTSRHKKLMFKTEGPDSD
Sequence (O15151 whole entry): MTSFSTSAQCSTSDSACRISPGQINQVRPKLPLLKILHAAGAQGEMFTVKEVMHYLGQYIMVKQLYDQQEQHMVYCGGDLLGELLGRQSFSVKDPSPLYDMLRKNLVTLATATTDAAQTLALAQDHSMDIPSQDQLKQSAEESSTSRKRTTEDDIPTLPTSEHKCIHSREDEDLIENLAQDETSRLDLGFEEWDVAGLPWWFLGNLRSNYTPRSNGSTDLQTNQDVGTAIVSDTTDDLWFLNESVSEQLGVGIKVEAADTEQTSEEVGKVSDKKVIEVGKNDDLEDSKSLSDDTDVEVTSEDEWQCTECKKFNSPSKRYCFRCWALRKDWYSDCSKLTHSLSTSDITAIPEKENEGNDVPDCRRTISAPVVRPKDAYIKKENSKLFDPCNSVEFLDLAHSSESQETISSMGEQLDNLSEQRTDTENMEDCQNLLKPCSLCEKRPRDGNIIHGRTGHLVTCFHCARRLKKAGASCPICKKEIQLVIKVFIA
pKi: −log10 of the molar value.

smilesNotation	assayTarget	pKi
COc1cc(C(=O)O)ccc1N1CN2[C@@H](CC(C)(C)C)[C@@]3(CNc4cc(Cl)ccc43)[C@@H](c3ccc(Cl)cc3)[C@@H]2C1=O	Tumour suppressor protein p53/Mdm4 (Homo sapiens, UniProt O15151)	< 4.57
COc1cc(C(=O)O)ccc1N1CN2[C@@H](CC(C)(C)C)[C@@]3(CNc4cc(Cl)ccc43)[C@@H](c3cccc(F)c3F)[C@@H]2C1=O	Tumour suppressor protein p53/Mdm4 (Homo sapiens, UniProt O15151)	< 4.57
COc1cc(C(=O)O)ccc1N1CN2[C@@H](CC(C)(C)C)[C@@]3(CNc4cc(Cl)ccc43)[C@@H](c3cccc(C)c3)[C@@H]2C1=O	Tumour suppressor protein p53/Mdm4 (Homo sapiens, UniProt O15151)	5.66

* * *

biological target: Tumour suppressor protein p53/Mdm4 (Homo sapiens, UniProt O15151); assay: Inhibition of MDM4/p53 (unknown origin) interaction by fluorescence polarization assay
pKi: −log10 of the molar value.
Here the recorded pKi is given for each entry.

smilesNotation	rel	pKi
COc1cc(C(=O)O)ccc1N1CN2[C@@H](CC3(C)CCOCC3)[C@@]3(CNc4cc(Cl)ccc43)[C@@H](c3cccc(Cl)c3)[C@@H]2C1=O	=	5.47
COc1cc(C(=O)O)ccc1N1CN2[C@@H](CC3(C)CCCC3)[C@@]3(CNc4cc(Cl)ccc43)[C@@H](c3cccc(Cl)c3)[C@@H]2C1=O	=	6.13
COc1cccc([C@H]2[C@@H]3C(=O)N(c4ccc(C(=O)O)cc4OC)CN3[C@@H](CC(C)(C)C)[C@@]23CNc2cc(Cl)ccc23)c1	<	4.57
COc1cc(NC(=O)[C@@H]2N[C@@H](CC(C)(C)C)[C@](C#N)(c3ccc(Cl)cc3F)[C@H]2c2cccc(Cl)c2F)ccc1C(=O)O	=	5.77
COc1cc(C(=O)O)ccc1N1CN2[C@@H](CC3(C)CCC3)[C@@]3(CNc4cc(Cl)ccc43)[C@@H](c3cccc(Cl)c3)[C@@H]2C1=O	=	5.75
COc1cc(C(=O)O)ccc1N1CN2[C@@H](CC(C)(C)C)[C@@]3(CNc4cc(Cl)ccc43)[C@@H](c3ccccc3Cl)[C@@H]2C1=O	<	4.57
COc1cc(C(=O)O)ccc1N1CN2[C@@H](CC(C)(C)C)[C@@]3(CNc4cc(Cl)ccc43)[C@@H](c3cccc(F)c3)[C@@H]2C1=O	=	5.40
COc1cc(C(=O)O)ccc1N1CN2[C@@H](CC(C)(C)C)[C@@]3(CNc4cc(Cl)ccc43)[C@@H](c3ccc(F)cc3)[C@@H]2C1=O	<	4.57

* * *

Here the recorded selectivity ratio is given for each entry.
experiment: Selectivity index, ratio of IC50 for HEK293 cells to IC50 for human A549 cells; type: toxicity; conditions: HEK293 cells versus A549 cells, read-out: Ratio IC50

smilesNotation	selectivity ratio
CCC(C)(C)C[C@@H]1N2CN(c3ccc(C(=O)O)cc3OC)C(=O)[C@H]2[C@H](c2cccc(Cl)c2)[C@]12CNc1cc(Cl)ccc12	93
COc1cc(C(=O)O)ccc1N1CN2[C@@H](CC(C)(C)C)[C@@]3(CNc4cc(Cl)ccc43)[C@@H](c3cccc(Cl)c3)[C@@H]2C1=O	52

* * *

Here the recorded Ki is given for each entry.
molecular target: Tumour suppressor protein p53/Mdm4 (Homo sapiens); assay: Inhibition of MDM4/p53 (unknown origin) interaction by fluorescence polarization assay

smilesNotation	assayTarget	Ki
CCC(C)(CC)C[C@@H]1N2CN(c3ccc(C(=O)O)cc3OC)C(=O)[C@H]2[C@H](c2cccc(Cl)c2)[C@]12CNc1cc(Cl)ccc12	Tumour suppressor protein p53/Mdm4 (Homo sapiens)	0.854 µM
COc1cc(C(=O)O)ccc1N1CN2[C@@H](CC(C)(C)C)[C@@]3(CNc4ccc(Cl)cc43)[C@@H](c3cccc(Cl)c3Cl)[C@@H]2C1=O	Tumour suppressor protein p53/Mdm4 (Homo sapiens)	> 27 µM
COc1cc(C(=O)O)ccc1N1CN2[C@@H](CC3(C)CCCCC3)[C@@]3(CNc4cc(Cl)ccc43)[C@@H](c3cccc(Cl)c3)[C@@H]2C1=O	Tumour suppressor protein p53/Mdm4 (Homo sapiens)	> 27 µM
COc1cc(C(=O)O)ccc1N1CN2[C@@H](CC(C)(C)C)[C@@]3(CNc4cc(Cl)cnc43)[C@@H](c3cccc(Cl)c3)[C@@H]2C1=O	Tumour suppressor protein p53/Mdm4 (Homo sapiens)	3.63 µM
COc1cc(C(=O)O)ccc1N1CN2[C@@H](CC(C)(C)C)[C@@]3(CNc4cc(Cl)ccc43)[C@@H](c3ccccc3F)[C@@H]2C1=O	Tumour suppressor protein p53/Mdm4 (Homo sapiens)	> 27 µM
COc1cc(C(=O)O)ccc1N1CN2[C@@H](CC(C)(C)C)[C@@]3(CNc4ccc(Cl)cc43)[C@@H](c3ccc(Cl)cc3)[C@@H]2C1=O	Tumour suppressor protein p53/Mdm4 (Homo sapiens)	> 27 µM

* * *

target: Tumour suppressor protein p53/Mdm4 (Homo sapiens); experiment: Inhibition of MDM4/p53 (unknown origin) interaction by fluorescence polarization assay
pKi: −log10 of the molar value.
Here the recorded pKi is given for each entry.

molecule	rel	pKi
COc1cc(C(=O)O)ccc1N1CN2[C@@H](CC(C)(C)C)[C@@]3(CNc4cc(Cl)ccc43)[C@@H](c3cccc(Cl)c3F)[C@@H]2C1=O	=	5.51
COc1cc(C(=O)O)ccc1N1CN2[C@@H](CC(C)(C)C)[C@@]3(CNc4ccc(Cl)cc43)[C@@H](c3ccccc3Cl)[C@@H]2C1=O	<	4.57
COc1cc(C(=O)O)ccc1N1CN2[C@@H](CC(C)(C)C)[C@@]3(CNc4cc(Cl)ccc43)[C@@H](c3cccc(Cl)c3Cl)[C@@H]2C1=O	=	5.30
CC(C)(C)C[C@@H]1N[C@@H](C(=O)N[C@H]2CC[C@H](O)CC2)[C@H](c2cccc(Cl)c2F)[C@]12C(=O)Nc1cc(Cl)ccc12 [SAR-405838]	=	4.43
COc1cc(C(=O)O)ccc1N1CN2[C@@H](CC(C)(C)C)[C@@]3(CNc4cc(Cl)ccc43)[C@@H](c3cccc(Cl)c3)[C@@H]2C1=O	<	4.57
COc1cc(C(=O)O)ccc1N1CN2[C@@H](CC(C)(C)C(C)C)[C@@]3(CNc4cc(Cl)ccc43)[C@@H](c3cccc(Cl)c3)[C@@H]2C1=O	=	5.95

* * *

target: Tumour suppressor p53/oncoprotein Mdm2 (Homo sapiens); test: Inhibition of MDM2/p53 (unknown origin) interaction by fluorescence polarization assay
Sequence (P04637 whole entry): as the sequence (P04637 whole entry) above
Sequence (Q00987 whole entry): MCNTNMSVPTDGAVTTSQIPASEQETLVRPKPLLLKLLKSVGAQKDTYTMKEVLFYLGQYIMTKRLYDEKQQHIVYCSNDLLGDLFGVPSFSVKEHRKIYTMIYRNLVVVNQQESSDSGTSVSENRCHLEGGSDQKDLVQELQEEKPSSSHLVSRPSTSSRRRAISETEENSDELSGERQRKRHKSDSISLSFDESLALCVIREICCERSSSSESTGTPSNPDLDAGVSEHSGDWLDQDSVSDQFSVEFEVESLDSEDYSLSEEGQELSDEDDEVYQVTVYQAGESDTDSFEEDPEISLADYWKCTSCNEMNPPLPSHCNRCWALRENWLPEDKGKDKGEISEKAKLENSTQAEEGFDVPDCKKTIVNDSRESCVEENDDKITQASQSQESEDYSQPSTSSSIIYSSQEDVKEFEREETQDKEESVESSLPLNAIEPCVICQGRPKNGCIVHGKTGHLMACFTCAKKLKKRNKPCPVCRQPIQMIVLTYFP
valueKind: Ki (nM)

smilesNotation	assayTarget	recordedValue
COc1cc(C(=O)O)ccc1N1CN2[C@@H](CC3(C)CCCCC3)[C@@]3(CNc4cc(Cl)ccc43)[C@@H](c3cccc(Cl)c3)[C@@H]2C1=O	Tumour suppressor p53/oncoprotein Mdm2 (Homo sapiens)	2.7
COc1cccc([C@H]2[C@@H]3C(=O)N(c4ccc(C(=O)O)cc4OC)CN3[C@@H](CC(C)(C)C)[C@@]23CNc2cc(Cl)ccc23)c1	Tumour suppressor p53/oncoprotein Mdm2 (Homo sapiens)	5.3
COc1cc(C(=O)O)ccc1N1CN2[C@@H](CC(C)(C)C)[C@@]3(CNc4cc(Cl)ccc43)[C@@H](c3cccc(Cl)c3)[C@@H]2C1=O	Tumour suppressor p53/oncoprotein Mdm2 (Homo sapiens)	0.4
COc1cc(C(=O)O)ccc1N1CN2[C@@H](CC(C)(C)C)[C@@]3(CNc4cc(Cl)ccc43)[C@@H](c3cccc(C(F)(F)F)c3)[C@@H]2C1=O	Tumour suppressor p53/oncoprotein Mdm2 (Homo sapiens)	50.5
COc1cc(C(=O)O)ccc1N1CN2[C@@H](CC(C)(C)C)[C@@]3(CNc4cc(Cl)ccc43)[C@@H](c3cccc(Cl)c3Cl)[C@@H]2C1=O	Tumour suppressor p53/oncoprotein Mdm2 (Homo sapiens)	7.6

* * *

Here the recorded Ki is given for each entry.
biological target: Tumour suppressor protein p53/Mdm4 (Homo sapiens); experiment: Inhibition of MDM4/p53 (unknown origin) interaction by fluorescence polarization assay

smilesNotation	Ki
COc1cc(C(=O)O)ccc1N1CN2[C@@H](CC(C)(C)C)[C@@]3(CNc4ccc(Cl)cc43)[C@@H](c3cccc(Cl)c3)[C@@H]2C1=O	> 27 µM
COc1cc(C(=O)O)ccc1N1CN2[C@@H](CC(C)(C)C)[C@@]3(CNc4cc(Cl)ccc43)[C@@H](c3cccc(C(F)(F)F)c3)[C@@H]2C1=O	5.74 µM
CCC(C)(C)C[C@@H]1N2CN(c3ccc(C(=O)O)cc3OC)C(=O)[C@H]2[C@H](c2cccc(Cl)c2)[C@]12CNc1cc(Cl)ccc12	1.13 µM

* * *

biological target: Tumour suppressor p53/oncoprotein Mdm2 (Homo sapiens); test: Inhibition of MDM2/p53 (unknown origin) interaction by fluorescence polarization assay

smilesNotation	Ki / nM
COc1cc(C(=O)O)ccc1N1CN2[C@@H](CC(C)(C)C)[C@@]3(CNc4ccc(Cl)cc43)[C@@H](c3cccc(Cl)c3)[C@@H]2C1=O	67.4
COc1cc(C(=O)O)ccc1N1CN2[C@@H](CC(C)(C)C)[C@@]3(CNc4cc(Cl)cnc43)[C@@H](c3cccc(Cl)c3)[C@@H]2C1=O	1.2
COc1cc(C(=O)O)ccc1N1CN2[C@@H](CC(C)(C)C)[C@@]3(CNc4cc(Cl)ccc43)[C@@H](c3ccc(F)cc3)[C@@H]2C1=O	9.6
COc1cc(C(=O)O)ccc1N1CN2[C@@H](CC3(C)CCC3)[C@@]3(CNc4cc(Cl)ccc43)[C@@H](c3cccc(Cl)c3)[C@@H]2C1=O	1
COc1cc(C(=O)O)ccc1N1CN2[C@@H](CC(C)(C)C)[C@@]3(CNc4cc(Cl)ccc43)[C@@H](c3ccccc3Cl)[C@@H]2C1=O	32.8
COc1cc(C(=O)O)ccc1N1CN2[C@@H](CC(C)(C)C(C)C)[C@@]3(CNc4cc(Cl)ccc43)[C@@H](c3cccc(Cl)c3)[C@@H]2C1=O	1.3
